Biological target: human Chemokine like receptor 1 (Homo sapiens, UniProt Q99788)
Construct: host or cells: U2OS (Tango CMKLR1-bla U2OS)
Sequence (Q99788 whole entry): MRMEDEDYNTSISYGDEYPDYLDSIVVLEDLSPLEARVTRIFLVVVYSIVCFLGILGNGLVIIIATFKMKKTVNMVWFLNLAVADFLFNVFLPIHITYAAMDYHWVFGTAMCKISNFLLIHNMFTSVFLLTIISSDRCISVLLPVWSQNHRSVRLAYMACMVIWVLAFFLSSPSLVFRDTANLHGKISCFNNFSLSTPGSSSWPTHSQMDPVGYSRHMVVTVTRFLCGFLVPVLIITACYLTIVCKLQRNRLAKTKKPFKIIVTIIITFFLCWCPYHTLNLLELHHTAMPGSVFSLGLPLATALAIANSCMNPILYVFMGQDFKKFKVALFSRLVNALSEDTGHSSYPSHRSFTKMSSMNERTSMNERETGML
Assay: Activation of Tango CMKLR1-bla U2OS cells (beta-lactamase FRET reporter)
Assay type: cell-based
Details: determination by the method of Effect Embodiment 1; read-out: EC50
Square brackets hold non-standard residues; d marks the D form. Peptide text beside a SMILES is read from it. * marks the point of attachment. Benzoyl(3,5-(OH)2) = O=C(c1cc(O)cc(O)c1)*; Tic = O=C(O)[C@@H]1Cc2ccccc2CN1
quantity measured: pEC50
Lab note — pEC50 values are minus log10 of concentrations in M.

Bench note, human Chemokine like receptor 1 (Homo sapiens, UniProt Q99788): CC(C)C[C@H](NC(=O)[C@H](Cc1ccccc1)NC(=O)[C@@H](Cc1ccc(O)cc1)NC(=O)c1cc(O)cc(O)c1)C(=O)N1CCC[C@H]1C(=O)N[C@H](CO)C(=O)N[C@@H](CCC(N)=O)C(=O)N[C@@H](Cc1ccccc1)C(=O)N[C@H](C)C(=O)N1Cc2ccccc2C[C@H]1C(=O)N[C@@H](CO)C(=O)O [YW-79] ({Benzoyl(3,5-(OH)2)}-[dY]FLP[dS]QF[dA][Tic]S-OH) , pEC50 reads 8.33

----------
Assay: Plasma stability, human plasma
Format: in vitro ADME
Details: 37° C., time points 0 minute, 1, 2 and 4 hours, LC-MS/MS, read-out: Human plasma (T1/2 (h)) (converted)
Square brackets hold non-standard residues; d marks the D form. Peptide text beside a SMILES is read from it. * marks the point of attachment. PEG8 = NCCOCCOCCOCCOCCOCCOCCOCCOCCC(=O)O; Palmitoyl = CCCCCCCCCCCCCCCC(=O)*; Tic = O=C(O)[C@@H]1Cc2ccccc2CN1; NMeL = CN[C@@H](CC(C)C)C(=O)O
quantity measured: half-life at 500 ng/mL (h)
Answer in h, number only, no unit symbol.

The reported value for CCCCCCCCCCCCCCCC(=O)NCCOCCOCCOCCOCCOCCOCCOCCOCCC(=O)NCC(=O)NCC(=O)N[C@H](Cc1ccc(O)cc1)C(=O)N[C@@H](Cc1ccccc1)C(=O)N(C)[C@@H](CC(C)C)C(=O)N1CCC[C@H]1C(=O)N[C@H](CO)C(=O)N[C@@H](CCC(N)=O)C(=O)N[C@@H](Cc1ccccc1)C(=O)N[C@H](C)C(=O)N1Cc2ccccc2C[C@H]1C(=O)N[C@@H](CO)C(=O)O [YW-133] ({Palmitoyl-PEG8}-GG[dY]F[NMeL]P[dS]QF[dA][Tic]S-OH) in terms of half-life at 500 ng/mL is 13.7

----------
Target: human Chemokine like receptor 1 (Homo sapiens)
Construct: host or cells: U2OS (Tango CMKLR1-bla U2OS)
Assay: Activation of Tango CMKLR1-bla U2OS cells (beta-lactamase FRET reporter)
Format: cell-based
Details: determination by the method of Effect Embodiment 1; read-out: EC50
Numbered stars: 1 amine (or outer) side, 2 acyl side, 3 side chain; on linkers, the order of the positions; unused ones are H or OH. Square brackets hold non-standard residues; d marks the D form. Peptide text beside a SMILES is read from it. * marks the point of attachment. X11 = O=C([C@@H](Cc1ccc(O)cc1)N(CCCc1ccccc1)[*:1])[*:2]; X6 = CCCN([C@@H](CC(C)C)C(=O)[*:2])[*:1]; Tiq1c(1S) = O=C(O)[C@H]1NCCc2ccccc21; Cyclohexylacetyl = O=C(CC1CCCCC1)*; Hydrocinnamoyl = O=C(CCc1ccccc1)*; Tic = O=C(O)[C@@H]1Cc2ccccc2CN1; dTic = O=C(O)[C@H]1Cc2ccccc2CN1; NMeL = CN[C@@H](CC(C)C)C(=O)O; X9 = O=C(c1ccc(O)c(O)c1O)*; NMeS = CN[C@@H](CO)C(=O)O
Please go through the items and note down their pEC50.
Value format note: pEC50 is -log10 of concentration (mol/L); just state the number.

Documented pEC50 of CC(C)C[C@@H](C(=O)N1CCC[C@H]1C(=O)N[C@H](CO)C(=O)N[C@@H](CCC(N)=O)C(=O)N[C@@H](Cc1ccccc1)C(=O)N[C@H](C)C(=O)N1Cc2ccccc2C[C@H]1C(=O)N[C@@H](CO)C(=O)O)N(C)C(=O)[C@H](Cc1ccccc1)NC(=O)[C@@H](Cc1ccc(O)cc1)NC(=O)CC1CCCCC1 [YW-194] (Cyclohexylacetyl-[dY]F[NMeL]P[dS]QF[dA][Tic]S-OH) : 8.92

CC(C)C[C@H](NC(=O)[C@H](Cc1ccccc1)NC(=O)[C@@H](Cc1ccc(O)cc1)NC(=O)c1ccc(O)c(O)c1O)C(=O)N1CCC[C@H]1C(=O)N[C@H](CO)C(=O)N[C@@H](CCC(N)=O)C(=O)N[C@@H](Cc1ccccc1)C(=O)N[C@H](C)C(=O)N1Cc2ccccc2C[C@H]1C(=O)N[C@@H](CO)C(=O)O [YW-129] (X9-[dY]FLP[dS]QF[dA][Tic]S-OH) yielded pEC50 of 8.04

Notebook: CC(C)C[C@H](NC(=O)[C@H](Cc1ccccc1)NC(=O)[C@H](N)Cc1ccc(O)cc1)C(=O)N1CCC[C@H]1C(=O)N[C@H](CO)C(=O)N[C@@H](CCC(N)=O)C(=O)N[C@@H](Cc1ccccc1)C(=O)N[C@H](C)C(=O)N1CCc2ccccc2[C@H]1C(=O)N[C@@H](CO)C(=O)O [YW-150] (H-[dY]FLP[dS]QF[dA][Tiq1c(1S)]S-OH) , pEC50 read as 7.21

# molecule CCCN(C(=O)[C@H](Cc1ccccc1)NC(=O)[C@@H](Cc1ccc(O)cc1)NC(=O)CCc1ccccc1)[C@@H](CC(C)C)C(=O)N1CCC[C@H]1C(=O)N[C@H](CO)C(=O)N[C@@H](CCC(N)=O)C(=O)N[C@@H](Cc1ccccc1)C(=O)N[C@H](C)C(=O)N1Cc2ccccc2C[C@H]1C(=O)N[C@@H](CO)C(=O)O [YW-186] (Hydrocinnamoyl-[dY]F[X6]P[dS]QF[dA][Tic]S-OH) ; its pEC50 = 7.96

According to the records, this molecule CC(C)C[C@H](NC(=O)[C@H](Cc1ccccc1)NC(=O)[C@@H](Cc1ccc(O)cc1)NCCCc1ccccc1)C(=O)N1CCC[C@H]1C(=O)N[C@H](CO)C(=O)N[C@@H](CCC(N)=O)C(=O)N[C@@H](Cc1ccccc1)C(=O)N[C@H](C)C(=O)N1Cc2ccccc2C[C@H]1C(=O)N[C@@H](CO)C(=O)O [YW-74] (H-[X11]FLP[dS]QF[dA][Tic]S-OH) displays pEC50 of 8.21

Lab book: pEC50 of CC(C)C[C@@H](C(=O)N1CCC[C@H]1C(=O)N[C@H](CO)C(=O)N[C@@H](CCC(N)=O)C(=O)N[C@@H](Cc1ccccc1)C(=O)N[C@H](C)C(=O)N1Cc2ccccc2C[C@@H]1C(=O)N(C)[C@@H](CO)C(=O)O)N(C)C(=O)[C@H](Cc1ccccc1)NC(=O)[C@H](N)Cc1ccc(O)cc1 [YW-182] (H-[dY]F[NMeL]P[dS]QF[dA][dTic][NMeS]-OH) noted as 7.39

----------
Biological target: human Chemokine like receptor 1 (Homo sapiens)
Construct: host or cells: U2OS (Tango CMKLR1-bla U2OS)
Assay: Activation of Tango CMKLR1-bla U2OS cells (beta-lactamase FRET reporter)
Assay type: cell-based
Conditions: determination by the method of Effect Embodiment 1; read-out: EC50
Square brackets hold non-standard residues; d marks the D form. Peptide text beside a SMILES is read from it. * marks the point of attachment. PEG8 = NCCOCCOCCOCCOCCOCCOCCOCCOCCC(=O)O; 1Nal = N[C@@H](Cc1cccc2ccccc12)C(=O)O; 2Nal = N[C@@H](Cc1ccc2ccccc2c1)C(=O)O; dNMeY = CN[C@H](Cc1ccc(O)cc1)C(=O)O; Myristoyl = CCCCCCCCCCCCCC(=O)*; Tic = O=C(O)[C@@H]1Cc2ccccc2CN1; NMeL = CN[C@@H](CC(C)C)C(=O)O; NMeS = CN[C@@H](CO)C(=O)O; βAla = NCCC(=O)O
Can you tell me EC50 for the items I'm about to list?
Give the value, in units of nM, as a plain number.

Reading of EC50 for CCCCCCCCCCCCCC(=O)NCCOCCOCCOCCOCCOCCOCCOCCOCCC(=O)NCCC(=O)NCCC(=O)N(C)[C@H](Cc1ccc(O)cc1)C(=O)N[C@@H](Cc1ccccc1)C(=O)N(C)[C@@H](CC(C)C)C(=O)N1CCC[C@H]1C(=O)N[C@H](CO)C(=O)N[C@@H](CCC(N)=O)C(=O)N[C@@H](Cc1ccc2ccccc2c1)C(=O)N[C@H](C)C(=O)N1Cc2ccccc2C[C@H]1C(=O)N(C)[C@@H](CO)C(=O)O [YW-180] ({Myristoyl-PEG8-βAla-βAla}-[dNMeY]F[NMeL]P[dS]Q[2Nal][dA][Tic][NMeS]-OH) with human Chemokine like receptor 1 (Homo sapiens): 1.4

Measured EC50 (human Chemokine like receptor 1 (Homo sapiens)), entry CN[C@H](Cc1ccc(O)cc1)C(=O)N[C@@H](Cc1ccccc1)C(=O)N(C)[C@@H](CC(C)C)C(=O)N1CCC[C@H]1C(=O)N[C@H](CO)C(=O)N[C@@H](CCC(N)=O)C(=O)N[C@@H](Cc1cccc2ccccc12)C(=O)N[C@H](C)C(=O)N1Cc2ccccc2C[C@H]1C(=O)N[C@@H](CO)C(=O)O [YW-168] (H-[dNMeY]F[NMeL]P[dS]Q[1Nal][dA][Tic]S-OH) : 1.2
